# TARGET UNDER TEST: T1, full length human DLL4 on overexpressing CHO or HEK293 cells (human, UniProt Q9NR61 27-685)
# T1 construct: also called CHO-hDLL4; HEK293-hDII4
# T1 sequence (Q9NR61 27-685 limits assumed): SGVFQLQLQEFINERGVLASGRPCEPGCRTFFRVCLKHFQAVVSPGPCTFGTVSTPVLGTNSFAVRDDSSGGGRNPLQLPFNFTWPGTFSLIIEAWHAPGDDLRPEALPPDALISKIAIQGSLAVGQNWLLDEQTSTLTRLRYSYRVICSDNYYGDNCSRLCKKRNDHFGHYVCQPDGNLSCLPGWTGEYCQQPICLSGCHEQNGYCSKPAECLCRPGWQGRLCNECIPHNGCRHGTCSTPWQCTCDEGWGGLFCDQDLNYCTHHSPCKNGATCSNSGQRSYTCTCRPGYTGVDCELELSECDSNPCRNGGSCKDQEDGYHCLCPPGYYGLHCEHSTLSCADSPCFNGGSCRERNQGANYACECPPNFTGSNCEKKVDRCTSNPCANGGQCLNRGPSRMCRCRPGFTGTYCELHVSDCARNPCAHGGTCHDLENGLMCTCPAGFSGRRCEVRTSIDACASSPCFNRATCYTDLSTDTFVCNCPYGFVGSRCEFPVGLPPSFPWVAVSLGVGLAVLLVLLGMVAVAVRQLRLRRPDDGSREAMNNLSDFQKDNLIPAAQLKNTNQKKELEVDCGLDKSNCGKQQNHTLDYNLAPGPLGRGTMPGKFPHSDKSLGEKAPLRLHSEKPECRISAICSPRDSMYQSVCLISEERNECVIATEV
# ASSAY COMMENT: FMAT, hNotch1/Fc on CHO-hDLL4, periplasmic extract
# Text: All calculations are based on the FL1 total signal which comprises the average of the fluorescence per well times the number of counts per well.
Each entry below lists one item and its recorded FMAT hDLL4 % inhibition value.
Numbers only; they are read as %.

{"BINDER": "DLLBII112E07 (VHH, tested as periplasmic extract; also called DLLBII112E7; not shown: C-terminal c-myc tag and His6 tag) VHH: EVQLVESGGGLVQAGGSLRLSCAASGRTVRSYATGWFRQAPGKEREFVAALRWSIGSIASVYYDDSVKGRFTISGDNAENTVYLQMNALKPEDTAIYYCASTTRGRYSALSASAYDYWGQGTQVTVSS", "FMAT hDLL4 % inhibition / %": 80}
{"BINDER": "DLLBII61F05 (VHH, tested as periplasmic extract; also called DLLBII61F5; not shown: C-terminal c-myc tag and His6 tag) VHH: EVQLVESGGGLVQPGGSLRLSCTASGFTFSSYAMSWVRQAPGKGLEWVSFINKDGSDTGYADSVKGRFTISRDNAKNTMYLQMNSLKPEDTAVYFCETRTSRSPRPRGQGTQVTVSS", "FMAT hDLL4 % inhibition / %": 74}

QUERY: Give the measured FMAT hDLL4 % inhibition of DLLBII95F02 (VHH, tested as periplasmic extract; also called DLLBII95F2; not shown: C-terminal c-myc tag and His6 tag) VHH: EVQLVESGGGSVQAGGSLRLSCAASGRTFSSYAMGWFRQAPGKEREFVAAINWSGGYTYYADSVRGRFTISRDNAKNTVYLQMNSLKPEDTAVYYCAAPAPGSSGYEYDYWGQGTQVTVSS .
RESULT: 81
